target: MNK2 (Homo sapiens, UniProt Q9HBH9); construct: the open reading frames of human Mnk1 and Mnk2a were amplified from cDNA; made in house; host or cells: E. coli BL21; test: Mnk2a in vitro kinase assay (indirect fluorescence polarization); assay type: biochemical; conditions: pre-activated GST-Mnk2a 2.5 nM, 20 μM ATP, 30 μM substrate peptide
Sequence (Q9HBH9 whole entry): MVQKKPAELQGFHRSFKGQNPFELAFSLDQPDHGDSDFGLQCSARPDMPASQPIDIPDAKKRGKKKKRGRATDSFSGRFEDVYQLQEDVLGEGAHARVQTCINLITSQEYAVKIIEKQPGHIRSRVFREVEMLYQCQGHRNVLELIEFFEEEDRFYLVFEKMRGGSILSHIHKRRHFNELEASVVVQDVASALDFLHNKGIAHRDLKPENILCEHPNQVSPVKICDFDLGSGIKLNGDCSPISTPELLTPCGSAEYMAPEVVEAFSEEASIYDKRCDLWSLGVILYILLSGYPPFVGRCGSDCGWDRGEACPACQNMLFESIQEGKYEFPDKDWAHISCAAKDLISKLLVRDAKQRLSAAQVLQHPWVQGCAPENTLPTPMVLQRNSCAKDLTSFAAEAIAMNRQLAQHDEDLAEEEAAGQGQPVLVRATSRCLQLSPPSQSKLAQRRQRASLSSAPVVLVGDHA
MEASUREMENT TYPE: IC50 (nM)

Some compounds with known IC50 results, for comparison:
[
  {
    "COMPOUND": "CNC(=O)CNC(=O)c1sc2ncnc(Nc3cccnc3O[C@@H]3CCC[C@@H](OC)C3)c2c1C (racemic)",
    "MEASUREMENT TYPE": "IC50",
    "UNIT DESCRIPTOR": "nM",
    "READOUT NUMBER": 105
  },
  {
    "COMPOUND": "CO[C@@H]1CCCC[C@H]1Oc1cc(F)ccc1Nc1ncnc2sc(C(=O)N[C@@H]3CCC[C@H]3O)c(C)c12",
    "MEASUREMENT TYPE": "IC50",
    "UNIT DESCRIPTOR": "nM",
    "READOUT NUMBER": 20
  }
]

A. CO[C@H]1CCC[C@@H](Oc2cc(F)ccc2Nc2ncnc3sc(C(=O)NCc4cnco4)c(C)c23)C1 (racemic)
B. Cc1c(C(=O)NCC(C)O)sc2ncnc(Nc3ccc(F)cc3OC3CCCC(O)C3)c12 (mixture of isomers)
C. Cc1c(C(N)=O)sc2ncnc(Nc3ccc(F)cc3O[C@@H]3C[C@@H]4OC(C)(C)O[C@@H]4C3)c12
D. Cc1c(C(=O)NCCO)sc2ncnc(Nc3ccc(F)cc3O[C@H]3CC[C@H](O)CC3)c12
E. Cc1c(C(N)=O)sc2ncnc(Nc3ccc(F)cc3O[C@H]3CC[C@H](O)CC3)c12
Place the items in sequence of falling IC50. // respond by listing labels in the order requested
C, B, A, D, E
(C: 390 nM, B: 43 nM, A: 16 nM, D: 9 nM, E: 4 nM)

A. CO[C@H]1CC[C@H](Oc2cc(F)ccc2Nc2ncnc3sc(C(=O)NCCO)c(C)c23)CC1
B. CO[C@H]1CCC[C@@H](Oc2ncccc2Nc2ncnc3sc(C(=O)N[C@H]4CC[C@H](O)CC4)c(C)c23)C1 (racemic)
C. COC1CCCC(Oc2ncccc2Nc2ncnc3sc(C(=O)NC4CCN(C)CC4)c(C)c23)C1 (stereo not drawn)
D. CC(=O)N[C@H]1C[C@H](Oc2cc(F)ccc2Nc2ncnc3sc(C(=O)NCCCN(C)C)c(C)c23)C1
E. Cc1c(C(N)=O)sc2ncnc(Nc3ccc(F)cc3OC3CCCC3)c12
Please list these in order of increasing IC50. Thank you! Provide the labels, sequenced as the question asks.
E, A, C, B, D

A. CO[C@@H]1CCCC[C@H]1Oc1cc(F)ccc1Nc1ncnc2sc(C(=O)NCCSC)c(C)c12
B. Cc1c(C(=O)NCCCN2CCCC2=O)sc2ncnc(Nc3ccc(F)cc3O[C@H]3CC[C@H](O)CC3)c12
Please state the entry with greater IC50 among A and B . Write down the label of the entry you select.
A
